Attribution: ChEMBL document CHEMBL1143265

- Test system: HN5
- test summary: Antiproliferative activity against human HN5 cells after 3 days by methylene blue stain technique
- Assay type: functional, cell-based
- condition info: HN5, 72 h
pIC50: −log10 of the molar value.
quantity name: pIC50

compound	measurement
COc1cc2ncn(-c3cc(OCc4ccccc4C(F)(F)F)c(C(N)=O)s3)c2cc1OC [GW843682X]	6.17

* * *

- system tested: UniProt P00533
- Sequence (P00533 whole entry): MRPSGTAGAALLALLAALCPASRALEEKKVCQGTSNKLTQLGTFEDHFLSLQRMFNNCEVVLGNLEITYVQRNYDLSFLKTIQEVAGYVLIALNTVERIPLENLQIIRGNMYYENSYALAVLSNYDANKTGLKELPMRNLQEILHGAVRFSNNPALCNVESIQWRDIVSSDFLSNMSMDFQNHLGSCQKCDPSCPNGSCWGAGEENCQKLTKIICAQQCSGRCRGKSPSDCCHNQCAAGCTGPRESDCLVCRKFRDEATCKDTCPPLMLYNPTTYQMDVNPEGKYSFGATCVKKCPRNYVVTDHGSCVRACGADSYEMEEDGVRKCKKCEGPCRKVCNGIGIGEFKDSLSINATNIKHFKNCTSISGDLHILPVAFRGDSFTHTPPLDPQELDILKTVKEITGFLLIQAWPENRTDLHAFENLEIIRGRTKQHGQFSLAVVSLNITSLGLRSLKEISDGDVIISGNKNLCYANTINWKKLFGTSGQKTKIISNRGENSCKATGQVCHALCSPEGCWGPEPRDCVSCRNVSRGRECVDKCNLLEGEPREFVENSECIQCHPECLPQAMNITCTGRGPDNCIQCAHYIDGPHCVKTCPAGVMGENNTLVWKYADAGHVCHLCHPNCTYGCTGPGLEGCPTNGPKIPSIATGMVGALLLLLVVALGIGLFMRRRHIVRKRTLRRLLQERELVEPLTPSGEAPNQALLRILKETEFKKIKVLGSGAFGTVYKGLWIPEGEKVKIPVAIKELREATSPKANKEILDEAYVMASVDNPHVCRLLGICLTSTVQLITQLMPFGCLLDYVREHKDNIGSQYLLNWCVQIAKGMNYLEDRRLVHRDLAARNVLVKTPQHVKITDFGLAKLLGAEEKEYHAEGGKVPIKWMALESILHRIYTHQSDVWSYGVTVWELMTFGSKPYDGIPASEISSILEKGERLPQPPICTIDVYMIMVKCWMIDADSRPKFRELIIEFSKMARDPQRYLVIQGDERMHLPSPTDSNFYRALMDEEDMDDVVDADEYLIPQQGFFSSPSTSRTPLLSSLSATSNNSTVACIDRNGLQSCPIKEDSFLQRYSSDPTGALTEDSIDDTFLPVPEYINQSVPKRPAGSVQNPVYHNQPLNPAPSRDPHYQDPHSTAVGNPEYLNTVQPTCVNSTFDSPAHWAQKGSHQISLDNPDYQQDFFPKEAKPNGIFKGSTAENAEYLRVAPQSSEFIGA

molecule	IC50
COc1cc2ncn(-c3cc(OCc4ccccc4C(F)(F)F)c(C(N)=O)s3)c2cc1OC [GW843682X]	> 48 µM

* * *

- system tested: Proto-oncogene tyrosine-protein kinase Src (Homo sapiens)
- Sequence (P12931 2-536 limits assumed): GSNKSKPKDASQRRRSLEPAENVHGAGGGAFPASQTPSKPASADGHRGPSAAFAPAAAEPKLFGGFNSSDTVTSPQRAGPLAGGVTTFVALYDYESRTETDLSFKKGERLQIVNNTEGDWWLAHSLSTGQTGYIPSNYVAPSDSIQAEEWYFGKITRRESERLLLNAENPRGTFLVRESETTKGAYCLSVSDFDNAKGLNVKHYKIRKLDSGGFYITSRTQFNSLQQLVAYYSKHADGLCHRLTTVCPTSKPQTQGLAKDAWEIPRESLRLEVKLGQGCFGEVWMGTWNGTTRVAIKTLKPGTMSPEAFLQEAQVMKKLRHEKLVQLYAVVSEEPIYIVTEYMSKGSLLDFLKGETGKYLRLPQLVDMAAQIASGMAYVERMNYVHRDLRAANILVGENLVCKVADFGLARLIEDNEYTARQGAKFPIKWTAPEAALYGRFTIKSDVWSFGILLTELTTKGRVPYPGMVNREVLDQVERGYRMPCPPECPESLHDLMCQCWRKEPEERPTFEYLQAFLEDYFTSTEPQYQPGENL
pIC50: −log10 of the molar value.

molecule	pIC50
COc1cc2ncn(-c3cc(OCc4ccccc4C(F)(F)F)c(C(N)=O)s3)c2cc1OC [GW843682X]	< 4.52
